# IC50 of inhibition of NIH-3T3 cell proliferation (WST-1) listing for each entry below
target: Recombinant human PDGF-BB (human, UniProt P01127 82-190); experiment: cell-based or functional assay
Sequence (P01127 82-190 limits assumed): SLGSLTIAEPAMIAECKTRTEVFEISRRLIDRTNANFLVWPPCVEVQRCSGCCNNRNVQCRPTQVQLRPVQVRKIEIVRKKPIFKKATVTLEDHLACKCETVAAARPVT
propertyLabel: IC50 of inhibition of NIH-3T3 cell proliferation (WST-1) (nM)

binder="DARPin #59 (designed binder) MRGSHHHHHHGSDLGKKLLEAARAGQGDEVHILMANGADVNAQDLNGQTPLHLAADIGHLEIVEVLLKHGADVNAQDYAGSTPLRLAAWAGHLEIVEVLLKNGADVNANDYFGYTPLHLAAYFGHLEIVEVLLKHGADVNAQDKFGKTAFDISIDNGNEDLAEILQKLN" measureunit=nM observed=2
binder="DARPin #28 (designed binder) MRGSHHHHHHGSDLGKKLLEAARAGQDDEVRILMANGADVNAKDEEGTTPLHYAAVWGHLEIVEVLLKAGADVNAQDIYGATPADLAALVGHEDIAEVLQKLN" measureunit=nM observed=1.6
binder="DARPin #24 (designed binder) MRGSHHHHHHGSDLGKKLLEAARAGQDDEVRELLKAGADVNAKDEEGTTPLHYAAVWGHLEIVEVLLKAGADVNAQDIYGATPADLAALVGHEDIAEVLQKLN" measureunit=nM observed=1.4
